tested_system: C-Raf kinase (Homo sapiens, UniProt P04049, Y340D/Y341D)
Construct: C-Raf residues 306-end; Y340D, Y341D with N-; GST (N); purchased Eurofins
Sequence (P04049 307-648 Y340D/Y341D): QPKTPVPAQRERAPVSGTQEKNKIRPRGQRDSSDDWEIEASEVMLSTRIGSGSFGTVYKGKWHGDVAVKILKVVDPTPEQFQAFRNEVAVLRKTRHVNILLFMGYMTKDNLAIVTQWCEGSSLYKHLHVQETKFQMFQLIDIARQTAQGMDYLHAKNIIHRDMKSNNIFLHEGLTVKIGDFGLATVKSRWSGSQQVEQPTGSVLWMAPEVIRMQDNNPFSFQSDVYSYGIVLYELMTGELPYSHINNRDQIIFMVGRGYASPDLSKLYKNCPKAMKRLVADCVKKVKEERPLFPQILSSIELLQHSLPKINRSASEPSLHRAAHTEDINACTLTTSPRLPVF
assay_overview: Biochemical Assay for C-Raf (coupled pyruvate kinase/lactate dehydrogenase assay)
study_conditions: Table 1, inhibition of biochemical activity; read-out: CRAF
pIC50: −log10 of the molar value.
assay_endpoint: pIC50

Query :: # get_value(readout= pIC50, system= C-Raf kinase (Homo sapiens, UniProt P04049, Y340D/Y341D)) for Cc1ccc(NC(=O)Nc2ccc(C(F)(F)F)nc2)cc1-c1ccnc(-c2ccnc(NC(=O)CN(C)C)c2)c1
Result :: > 7.00

Query :: # get_value(readout= pIC50, system= C-Raf kinase (Homo sapiens, UniProt P04049, Y340D/Y341D)) for CC(=O)Nc1cc(-c2cc(-c3cc(NC(=O)Nc4ccc(C(F)(F)F)nc4)ccc3C)cn(C)c2=O)ccn1
Result :: > 7.00

Query :: # get_value(readout= pIC50, system= C-Raf kinase (Homo sapiens, UniProt P04049, Y340D/Y341D)) for Cc1ccc(NC(=O)Nc2ccc(C(F)(F)F)nc2)cc1-c1cc(OCC2COC2)nc(N2CCOCC2)c1
Result :: > 7.00

Query :: # get_value(readout= pIC50, system= C-Raf kinase (Homo sapiens, UniProt P04049, Y340D/Y341D)) for Cc1cc(F)c(NC(=O)Nc2ccc(C(F)(F)F)nc2)cc1-c1cc(OCCN(C)C)nc(N2CCOCC2)c1
Result :: 6.30 to 7.00

Query :: # get_value(readout= pIC50, system= C-Raf kinase (Homo sapiens, UniProt P04049, Y340D/Y341D)) for CNC(=O)c1cc(-c2cc(-c3cc(NC(=O)Nc4ccc(C(F)(F)F)nc4)ccc3C)ccn2)ccn1
Result :: > 7.00

Query :: # get_value(readout= pIC50, system= C-Raf kinase (Homo sapiens, UniProt P04049, Y340D/Y341D)) for CC(=O)Nc1cc(-c2cc(-c3cc(NC(=O)Nc4ccc(C(F)(F)F)nc4)ccc3C)cc(OCCO)n2)ccn1
Result :: > 7.00

Query :: # get_value(readout= pIC50, system= C-Raf kinase (Homo sapiens, UniProt P04049, Y340D/Y341D)) for Cc1ccc(NC(=O)Nc2ccc(C(F)(F)F)nc2)cc1-c1cc(-c2cnn(C)c2)nc(N2CCOCC2)c1
Result :: > 7.00

Query :: # get_value(readout= pIC50, system= C-Raf kinase (Homo sapiens, UniProt P04049, Y340D/Y341D)) for Cc1ccc(NC(=O)Nc2cccnc2)cc1-c1cc(OCCO)nc(N2CCOCC2)c1
Result :: > 7.00

Query :: # get_value(readout= pIC50, system= C-Raf kinase (Homo sapiens, UniProt P04049, Y340D/Y341D)) for Cc1ccc(NC(=O)Nc2ccc(C(F)(F)F)nc2)cc1-c1cc(OC[C@H](C)O)nc(N2CCOCC2)c1
Result :: > 7.00

Query :: # get_value(readout= pIC50, system= C-Raf kinase (Homo sapiens, UniProt P04049, Y340D/Y341D)) for CC(=O)Nc1cc(-c2cc(-c3cc(NC(=O)Nc4ccc(C(F)(F)F)nc4)ccc3C)cc(=O)n2C)ccn1
Result :: > 7.00

Query :: # get_value(readout= pIC50, system= C-Raf kinase (Homo sapiens, UniProt P04049, Y340D/Y341D)) for CNc1cc(-c2cc(-c3cc(NC(=O)Nc4ccc(C(F)(F)F)nc4)ccc3C)cc(OCCO)n2)ccn1
Result :: > 7.00

Query :: # get_value(readout= pIC50, system= C-Raf kinase (Homo sapiens, UniProt P04049, Y340D/Y341D)) for Cc1ccc(NC(=O)Nc2ccc(C(F)(F)F)nc2)cc1-c1cc(OCCO)nc(-c2cn[nH]c2)c1
Result :: > 7.00

Query :: # get_value(readout= pIC50, system= C-Raf kinase (Homo sapiens, UniProt P04049, Y340D/Y341D)) for CNc1cc(-c2cc(-c3cc(NC(=O)Nc4ccc(C(F)(F)F)nc4)ccc3C)ccn2)ccn1
Result :: > 7.00

Query :: # get_value(readout= pIC50, system= C-Raf kinase (Homo sapiens, UniProt P04049, Y340D/Y341D)) for CNC(=O)c1cc(-c2cncc(-c3cc(NC(=O)Nc4ccc(C(F)(F)F)nc4)ccc3C)c2)ncn1
Result :: > 7.00

Query :: # get_value(readout= pIC50, system= C-Raf kinase (Homo sapiens, UniProt P04049, Y340D/Y341D)) for Cc1ccc(NC(=O)Nc2cnc(C(F)(F)F)nc2)cc1-c1cc(OCCO)nc(N2CCOCC2)c1
Result :: > 7.00

Query :: # get_value(readout= pIC50, system= C-Raf kinase (Homo sapiens, UniProt P04049, Y340D/Y341D)) for COCC(=O)Nc1cc(-c2cncc(-c3cc(NC(=O)Nc4ccc(C(F)(F)F)nc4)ccc3C)n2)ccn1
Result :: > 7.00

Query :: # get_value(readout= pIC50, system= C-Raf kinase (Homo sapiens, UniProt P04049, Y340D/Y341D)) for Cc1ccc(NC(=O)Nc2ccc(C(F)(F)F)nc2)cc1-c1cc(OCCN(C)C)nc(N2CCOCC2)c1
Result :: > 7.00

Query :: # get_value(readout= pIC50, system= C-Raf kinase (Homo sapiens, UniProt P04049, Y340D/Y341D)) for Cc1ccc(NC(=O)Nc2cc(C(F)(F)F)cnn2)cc1-c1ccnc(-c2ccnc(NC(=O)C3CC3)c2)c1
Result :: > 7.00

Query :: # get_value(readout= pIC50, system= C-Raf kinase (Homo sapiens, UniProt P04049, Y340D/Y341D)) for CC(=O)Nc1cc(-c2cc(-c3cc(NC(=O)Nc4ccc(C(F)(F)F)nc4)ccc3C)nn(C)c2=O)ccn1
Result :: 5.00 to 6.00

Query :: # get_value(readout= pIC50, system= C-Raf kinase (Homo sapiens, UniProt P04049, Y340D/Y341D)) for Cc1ccc(NC(=O)Nc2ccc(C(F)(F)F)nc2)cc1-c1cc(N2CCOCC2)nc(N2CCOCC2)c1
Result :: > 7.00

Query :: # get_value(readout= pIC50, system= C-Raf kinase (Homo sapiens, UniProt P04049, Y340D/Y341D)) for Cc1ccc(NC(=O)Nc2ccc(C(F)(F)F)nc2)cc1-c1cncc(-c2cc(N)ncn2)c1
Result :: > 7.00

Query :: # get_value(readout= pIC50, system= C-Raf kinase (Homo sapiens, UniProt P04049, Y340D/Y341D)) for CC(=O)Nc1cc(-c2cc(-c3cc(NC(=O)Nc4ccc(C(F)(F)F)nc4)ccc3C)ccn2)ccn1
Result :: > 7.00

Query :: # get_value(readout= pIC50, system= C-Raf kinase (Homo sapiens, UniProt P04049, Y340D/Y341D)) for CC(=O)Nc1cc(-c2cc(-c3cc(NC(=O)Nc4ccc(C(F)(F)F)nc4)cnc3C)ccn2)ccn1
Result :: > 7.00

Query :: # get_value(readout= pIC50, system= C-Raf kinase (Homo sapiens, UniProt P04049, Y340D/Y341D)) for Cc1ccc(NC(=O)Nc2ccc(C(F)(F)F)nc2)cc1-c1cc(-c2ccnc(NC(=O)CN(C)C)c2)c(=O)n(C)c1
Result :: 6.30 to 7.00

Query :: # get_value(readout= pIC50, system= C-Raf kinase (Homo sapiens, UniProt P04049, Y340D/Y341D)) for Cc1ccc(NC(=O)Nc2ccc(C(F)(F)F)nc2)cc1-c1cc(OC2CCNCC2)nc(N2CCOCC2)c1
Result :: > 7.00

Query :: # get_value(readout= pIC50, system= C-Raf kinase (Homo sapiens, UniProt P04049, Y340D/Y341D)) for Cc1ccc(NC(=O)Nc2ccc(C(F)(F)F)nc2)cc1-c1cc(F)nc(N2CCOCC2)c1
Result :: 5.00 to 6.00

Query :: # get_value(readout= pIC50, system= C-Raf kinase (Homo sapiens, UniProt P04049, Y340D/Y341D)) for COCC(=O)Nc1cc(-c2cc(-c3cc(NC(=O)Nc4ccc(C(F)(F)F)nc4)ccc3C)cn(C)c2=O)ccn1
Result :: > 7.00

Query :: # get_value(readout= pIC50, system= C-Raf kinase (Homo sapiens, UniProt P04049, Y340D/Y341D)) for Cc1ccc(NC(=O)Nc2ccc(C(F)(F)F)nc2)cc1-c1cncc(-c2ccnc(NC(=O)CC#N)c2)n1
Result :: > 7.00

Query :: # get_value(readout= pIC50, system= C-Raf kinase (Homo sapiens, UniProt P04049, Y340D/Y341D)) for Cc1ccc(NC(=O)Nc2ccc(C(F)(F)F)nc2)cc1-c1cc(N2CCOCC2)nc(N2CCN(C)CC2)c1
Result :: 6.30 to 7.00

Query :: # get_value(readout= pIC50, system= C-Raf kinase (Homo sapiens, UniProt P04049, Y340D/Y341D)) for Cc1ccc(NC(=O)Nc2ccc(C(F)(F)F)nc2)cc1-c1cc(N2CCOCC2)nc(N2CCC(O)CC2)n1
Result :: > 7.00
